target_desc: CDK-2 enzyme, complexed with cyclin A (Homo sapiens)
method_description: CDK2 enzyme inhibition assay (33P phosphorylation of peptide […], filter plate)
condition_details: CDK-2/cyclin A, 0.1 mM ATP, 40 min at 30° C.
pIC50: −log10 of the molar value.
parameter: pIC50

Past entries and their recorded results:
> print(dat)
                                   molecule  parameter  measured
1  CCNc1cc(Nc2ccc(S(=O)(=O)N(C)C)cc2)n2ncc(C(C)C)c2n1      pIC50      5.50
2  CC(C)c1cnn2c(Nc3ccc(S(=O)(=O)N(C)CCO)cc3)cc(Cl)nc12      pIC50      6.90
3  CC(C)c1cnn2c(Nc3ccc(S(=O)(=O)N(C)C)cc3)cc(C(=O)N3CCC(N)CC3)nc12      pIC50      5.87
4  CN(C)S(=O)(=O)c1ccc(Nc2cc(N[C@H]3CC[C@H](N)CC3)nc3c(C4CCCC4)cnn23)cc1      pIC50      8.40
5  CCNc1cc(Nc2ccc(S(C)(=O)=O)cc2)n2ncc(C(C)C)c2n1      pIC50      6.07

I: CC(C)c1cnn2c(Nc3ccc(S(=O)(=O)N(C)CCN(C)C)cc3)cc(Cl)nc12 [Example 68]
II: N[C@H]1CC[C@@H](Nc2cc(Nc3ccc(S(=O)(=O)N4CCCC4)cc3)n3ncc(Br)c3n2)CC1
III: CC(C)c1cnn2c(Nc3ccc(S(=O)(=O)N(C)C)cc3)cc(N3CCC(C(=O)O)CC3)nc12
IV: CC(C)c1cnn2c(Nc3ccc(S(C)(=O)=O)nc3)cc(Cl)nc12
## Task Sequence the entries by pIC50, beginning with the highest number. Order the labels as requested and list them.
## Result I, II, IV, III
(I: 7.28, II: 6.82, IV: 6.53, III: 5.32)

1: CCN(CC)c1cc(Nc2ccc(S(=O)(=O)N(C)CCO)cc2)n2ncc(C(C)C)c2n1
2: CC(C)c1cnn2c(Nc3ccc(S(=O)(=O)N(C)C)cc3)cc(N3CCC(CN(C)C)CC3)nc12
## Task Could you tell me which of 1 and 2 has the lower pIC50 reading? Pick one; state its label.
## Result 2
(2: 5.22, 1: 6.59)

* * *

target_desc: CDK-2 enzyme, complexed with cyclin A (Homo sapiens)
method_description: CDK2 enzyme inhibition assay (33P phosphorylation of peptide […], filter plate)
condition_details: CDK-2/cyclin A, 0.1 mM ATP, 40 min at 30° C.
parameter: IC50 (nM)

> print(dat)
                                   molecule                               target.desc  parameter  measured
1  N[C@H]1CC[C@H](Nc2cc(Nc3cccc(Cl)c3)n3ncc(Cl)c3n2)CC1  CDK-2 enzyme, complexed with cyclin A (Homo sapiens)       IC50         9
2  CCc1cnn2c(Nc3ccc(S(C)(=O)=O)cc3)cc(N(C)C)nc12  CDK-2 enzyme, complexed with cyclin A (Homo sapiens)       IC50      1130

A: CNS(=O)(=O)c1ccc(Nc2cc(N[C@H]3CC[C@H](N)CC3)nc3c(C(C)C)cnn23)cc1 [Example 61]
B: CC(C)c1cnn2c(Nc3ccc(S(=O)(=O)N(C)C)cc3)cc(N3CCC(C(N)=O)CC3)nc12
## Task Between A and B , which one shows the larger IC50 value? Give the label of your selection.
## Result B

a: COCCN(C)S(=O)(=O)c1ccc(Nc2cc(Cl)nc3c(C(C)C)cnn23)cc1
b: CC(C)c1cnn2c(Nc3ccc(S(=O)(=O)N(C)C)cc3)cc(N3CCN(CC4CCN(C)CC4)CC3)nc12
c: CNC(=O)C1CCN(C(=O)c2cc(Nc3ccc(S(=O)(=O)N(C)C)cc3)n3ncc(C(C)C)c3n2)CC1
d: O=S(=O)(c1ccccc1)c1ccc(Nc2cc(N[C@H]3CC[C@H](O)CC3)nc3c(Br)cnn23)cc1
## Task hey, can you rank those molecules up there by IC50? biggest number first please A complete answer lists every label in the requested sequence.
## Result b, c, d, a

* * *

Listed below: IC50 values for each entry.
target_desc: PDK1 enzyme (Homo sapiens, UniProt O15530)
Sequence (O15530 whole entry): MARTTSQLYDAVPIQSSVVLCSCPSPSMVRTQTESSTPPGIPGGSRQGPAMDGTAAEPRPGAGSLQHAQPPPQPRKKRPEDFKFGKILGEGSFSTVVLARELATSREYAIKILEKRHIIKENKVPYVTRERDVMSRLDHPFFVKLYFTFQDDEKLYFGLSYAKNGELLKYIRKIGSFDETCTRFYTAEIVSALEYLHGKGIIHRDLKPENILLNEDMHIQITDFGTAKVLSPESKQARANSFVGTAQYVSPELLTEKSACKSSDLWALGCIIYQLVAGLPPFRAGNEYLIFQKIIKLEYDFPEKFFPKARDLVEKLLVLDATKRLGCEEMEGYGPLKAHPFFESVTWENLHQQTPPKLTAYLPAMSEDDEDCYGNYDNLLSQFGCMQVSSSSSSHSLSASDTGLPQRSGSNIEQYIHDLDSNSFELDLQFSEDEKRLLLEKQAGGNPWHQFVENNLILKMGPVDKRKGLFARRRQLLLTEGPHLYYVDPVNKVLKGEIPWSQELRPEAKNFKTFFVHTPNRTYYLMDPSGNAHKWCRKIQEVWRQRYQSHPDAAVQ
method_description: PDK1 kinase inhibition assay (33P phosphorylation of synthetic peptide, filter plate)
Assay type: biochemical
condition_details: 0.01 mM ATP, 60 min at 30° C.; read-out: PDK1 IC50
Protocol: The assay mixture containing the inhibitor and PDK1 enzyme was mixed together in a microtiter plate in a final volume of 50 μl and incubated for 60 min at 30° C. The assay mixture contained 0.01 mM unlabeled ATP, 0.01 μCi/μl ^33P-γ-ATP, 0.075 mM peptide, 0.1 mg/ml BSA, 7.5 mM magnesium acetate, 0.05M Tris.HCl, pH 7.5, 0.5% 2-mercaptoethanol. […] The filtration plate was dried for 10 min at 65° C., scintillant added and phosphorylated peptide quantified in a scintillation counter (Trilux, PerkinElmer)

Previously resolved entries follow.
> print(dat)
                                   compound  measured
1  CN(C)S(=O)(=O)c1ccc(Nc2cc(N[C@H]3CC[C@H](N)CC3)nc3c(Cl)cnn23)cc1   1.54 µM
2  CC(C)c1cnn2c(Nc3ccc(S(=O)(=O)N(C)C)cc3)cc(N3CCCC(CN(C)C)C3)nc12 (stereo not drawn)  > 200 µM
3  CC(C)c1cnn2c(Nc3ccc(S(=O)(=O)N(C)C)cc3)cc(NC3CCCCC3)nc12  > 200 µM
4        CS(=O)(=O)c1ccc(Nc2ccnc3ccnn23)cc1  > 200 µM
5  CCc1cnn2c(Nc3ccc(S(C)(=O)=O)cc3)cc(Cl)nc12  > 200 µM

## Task Item CC(C)c1cnn2c(Nc3ccc(S(=O)(=O)N(C)C)cc3)cc(N3CCCCC3)nc12 has what recorded IC50?
## Result > 200 µM

## Task Would you kindly repeat that for N[C@H]1CC[C@@H](Nc2cc(Nc3ccc(S(=O)(=O)Nc4nccs4)cc3)n3ncc(Br)c3n2)CC1 ?
## Result 0.66 µM

## Task Same question, CN(C)S(=O)(=O)c1ccc(Nc2cc(N[C@@H]3CCCC[C@@H]3N)nc3c(Br)cnn23)cc1 this time
## Result > 50 µM

## Task Again, but for CC(C)c1cnn2c(Nc3ccc(S(=O)(=O)N(C)CCN(C)C)cc3)cc(Cl)nc12
## Result > 200 µM

## Task Likewise for Oc1ccc(-c2cc(Nc3cccc(Cl)c3)n3nccc3n2)cc1 ?
## Result > 200 µM

## Task Moving on to the next compound: CC(C)c1cnn2c(Nc3ccc(S(C)(=O)=O)nc3)cc(N[C@H]3CC[C@H](N)CC3)nc12
## Result 96.5 µM

## Task What about this compound? CC(C)Oc1cc(Nc2ccc(S(=O)(=O)N(C)C)cc2)n2ncc(C(C)C)c2n1
## Result > 200 µM

* * *

The compounds listed here are annotated with their pIC50.
target_desc: GST-Chk1 enzyme (Homo sapiens, UniProt O14757)
Sequence (O14757 1-476): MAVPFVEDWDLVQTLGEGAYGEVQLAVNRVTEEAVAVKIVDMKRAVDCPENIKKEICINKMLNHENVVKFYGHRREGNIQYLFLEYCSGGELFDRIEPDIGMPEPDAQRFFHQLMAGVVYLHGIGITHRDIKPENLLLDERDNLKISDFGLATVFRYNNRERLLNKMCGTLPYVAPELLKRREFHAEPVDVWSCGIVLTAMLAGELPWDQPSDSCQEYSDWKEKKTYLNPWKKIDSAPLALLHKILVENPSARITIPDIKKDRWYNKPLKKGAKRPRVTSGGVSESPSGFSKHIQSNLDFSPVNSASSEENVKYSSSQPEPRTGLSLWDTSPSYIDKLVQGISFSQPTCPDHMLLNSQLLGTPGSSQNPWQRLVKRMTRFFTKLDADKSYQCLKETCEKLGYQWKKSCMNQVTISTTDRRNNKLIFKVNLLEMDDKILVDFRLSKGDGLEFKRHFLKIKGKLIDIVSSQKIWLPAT
method_description: Chk1 kinase inhibition assay (33P phosphorylation of Chktide, filter plate)
Assay type: biochemical
condition_details: 0.01 mM ATP, 11 nM GST-Chk1, 40 minutes at 30° C.; read-out: Chk1 IC50
pIC50: −log10 of the molar value.

Worked examples, 5 compounds total:
> print(dat)
                                   compound  parameter  measured
1  CC[C@H](CO)Nc1cc(Nc2ccc(S(=O)(=O)N(C)C)cc2)n2ncc(C(C)C)c2n1      pIC50    < 3.70
2  CC(C)c1cnn2c(Nc3ccc(S(=O)(=O)N(C)C)cc3)cc(N3CCCC(CO)C3)nc12 (stereo not shown)      pIC50    < 3.70
3  CC(C)c1cnn2c(Nc3ccc(S(=O)(=O)N(C)C)cc3)cc(N[C@H]3CC[C@H](O)CC3)nc12      pIC50    < 3.70
4  CC(C)c1cnn2c(Nc3ccc(S(=O)(=O)N(C)CCO)cc3)cc(Cl)nc12      pIC50    < 3.70
5  CN(C)S(=O)(=O)c1ccc(Nc2cc(N[C@@H]3CCCC[C@@H]3N)nc3c(Br)cnn23)cc1      pIC50      6.01

# context switch: different compound, same pIC50
## Task Please look up its pIC50: CCN(CC)C(=O)COc1cc(Nc2ccc(S(=O)(=O)N(C)C)cc2)n2ncc(C(C)C)c2n1
## Result < 3.70
